tested on: superoxide anion formation from rat neutrophils stimulated with fMLP/CB; experiment: Superoxide anion formation in rat neutrophils stimulated by fMLP/CB; assay type: cell-based; conditions: at the highest concentration; rat neutrophils, fMLP/CB
Here the recorded % of inhibition of superoxide anion formation, fMLP/CB (in parentheses) is given for each entry.
Output spec: scalar in %, unitless text.

Please review the entries below; each comes with its answer.
[[record]]
molecule = "C=C(C)C1CCC2(C)C(C(=O)C=C3C4CC(C)(C(=O)O)CCC4(C)CCC32C)C1(C)CCC(=O)OC(C)C (stereo not shown)"
u = "%"
reported = 48.8

[[record]]
molecule = "C=C(C)C1CCC2(C)C(C(=O)C=C3C4CC(C)(C(=O)O)CCC4(C)CCC32C)C1(C)CCC(=O)OC (stereo not shown)"
u = "%"
reported = 81.9

[[record]]
molecule = "CC1(C(=O)O)CCC2(C)CCC3(C)C(=CC(=O)C4C5(C)CCC(=O)OC(C)(C)C5CCC43C)C2C1 (stereo not shown)"
u = "%"
reported = 27.4

[[record]]
molecule = "CC1(C(=O)Nc2ccccc2)CCC2(C)CCC3(C)C(=CC(=O)C4C5(C)CCC(=O)OC(C)(C)C5CCC43C)C2C1 (stereo not shown)"
u = "%"
reported = "−1.6"


Qu. Which % of inhibition of superoxide anion formation, fMLP/CB (in parentheses) is listed for C=C(C)C1CCC2(C)C(C(=O)C=C3C4CC(C)(C(=O)OC(C)C)CCC4(C)CCC32C)C1(C)CCC(=O)OC (stereo not shown) ?
Ans. −2.5

Qu. What measured % of inhibition of superoxide anion formation, fMLP/CB (in parentheses) goes with CC1(C(=O)OCc2ccccc2)CCC2(C)CCC3(C)C(=CC(=O)C4C5(C)CCC(=O)OC(C)(C)C5CCC43C)C2C1 (stereo not shown) ?
Ans. −22.9

Qu. % of inhibition of superoxide anion formation, fMLP/CB (in parentheses) for CC(C)NC(=O)C1(C)CCC2(C)CCC3(C)C(=CC(=O)C4C5(C)CCC(=O)OC(C)(C)C5CCC43C)C2C1 (stereo not shown) ?
Ans. 2.7

Source of measurements: patent US8329940B2
